experimental_target: SARS-CoV-2 full length spike protein, V483A mutant, expressed on CHO cells (SARS-CoV-2, UniProt P0DTC2 14-1273)
Consider the following binders; for each one, report its median fluorescence intensity, fold over isotype control.
Numbers only here, please. The scale is fold over isotype.

Form field median fluorescence intensity, fold over isotype control, entry antibody 475 (antibody, V domains shown) VH: QVQLVESGGGVVQPGRSLRLSCAASGFTFSSYAMHWVRQAPGKGLEWVTFISHEGSNKYYADSVKGRFTISRDNSKNTLYLQMNSLRAEDTAVYYCARTFEYSSSSATGDFDYWGQGTLVTVSS VL: QSVLTQPPSVSGAPGQRVTISCTGSSSNIGAGYDVHWYQQLPGTAPKLLIYGNSNRPSGVPDRFSGSKSGTSASLAITGLQAEDEADYYCQSYDSSLSGVVFGGGTKLTVL : 20.2

Form field median fluorescence intensity, fold over isotype control, entry antibody 474 (antibody, V domains shown) VH: EVQLVESGGGLVQPGGSLRLSCAASGFTFSSYWMHWVRQAPGKGLVWVSRINSDGSSTSYADSVKGRFTISRDNAKNTLYRQMNSLRAEDTAVYYCALGPLDIVGSYYYYGMDVWGQGTTVTVSS VL: NFMLTQPHSVSESPGKTVTISCTGSSGSIASNYVQWYQQRPGSAPTTVIYEDNQRPSGVPDRFSGSIDSSSNSASLTISGLKTEDEADYYCQSYDSSNQDVVFGGGTKLTVL : 1.05
